# TEST TARGET: recombinant human mPGES-1 (Homo sapiens, UniProt O14684)
# Construct: made in house; host or cells: Rosetta E. coli (membrane/microsome fraction)
# Sequence (O14684 whole entry): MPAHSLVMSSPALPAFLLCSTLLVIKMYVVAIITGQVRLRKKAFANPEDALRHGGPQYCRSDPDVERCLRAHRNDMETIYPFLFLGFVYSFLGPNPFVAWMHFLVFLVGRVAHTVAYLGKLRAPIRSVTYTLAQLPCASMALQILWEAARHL
# TEST DESCRIPTION: Assay A: mPGES-1 enzyme assay (HTRF detection of PGE2)
# Assay type: biochemical
# RUN CONDITIONS: biological assay A; microsomes from E. coli expressing recombinant human mPGES-1; read-out: mPGES-1 inhibitory effect IC50
READOUT KIND: IC50 (nM)

Check out these entries, answers already filled in.
- MOLECULE: "Cn1c(Nc2cc(CNC(=O)C3(C(F)(F)F)CC3)ccc2Cl)nc2cc(F)c(N3CCC(C(F)(F)F)CC3)c(F)c21 [Example 84]"
  IC50, nM: 7.3
- MOLECULE: "Cn1c(Nc2cc(CNC(=O)C(C)(F)F)ccc2Cl)nc2cc(Cl)c(N3CCCC(C(F)(F)F)C3)cc21 (stereo not shown) [Example 15]"
  IC50, nM: 3
- MOLECULE: "Cn1c(Nc2cc(CNS(=O)(=O)C(C)(C)C)ccc2Cl)nc2cc(Cl)c(N3CCN(c4ccc(C(F)(F)F)cc4)CC3)cc21 [Example 100]"
  IC50, nM: 7.7
- MOLECULE: "Cn1c(Nc2cc(CNC(=O)C3(C(F)(F)F)CC3)ccc2F)nc2cc(Cl)c(N3CCC(F)(F)CC3)cc21 [Example 112]"
  IC50, nM: 22
- MOLECULE: "CC(C)(C)C(=O)NCc1ccc(OC(F)(F)F)c(Nc2nc3cc(C#N)c(N4CCCC(C(F)(F)F)C4)cc3[nH]2)c1 (stereo not shown) [Example 117]"
  IC50, nM: 120

[P] CC(C(=O)NCc1ccc(C(F)(F)F)c(Nc2nc3cc(Cl)c(N4CCC(C(F)(F)F)CC4)cc3n2C)c1)C(F)(F)F (stereo not shown) [Example 105]
[Q] Cn1c(Nc2cc(CNC(=O)C(C)(F)F)ccc2Cl)nc2cc(Cl)c(N3CCC(c4ccccc4)CC3)cc21 [Example 95]
[R] CC(C)(C(=O)NCc1ccc(Cl)c(Nc2nc3cc(N4CCCC4)ccc3[nH]2)c1)C(F)(F)F [Example 17]
[S] O=C(NCc1ccc(Cl)c(Nc2nc3cc(Cl)c(N4CCCC(C(F)(F)F)C4)cc3[nH]2)c1)C1(C(F)(F)F)CC1 (stereo not shown) [Example 72]
[T] Cn1c(Nc2cc(CNC(=O)c3c(Cl)cncc3Cl)ccc2Cl)nc2cc(Cl)c(N3CCCC(C(F)(F)F)C3)cc21 (stereo not shown) [Example 54]
Ask: List these items ordered by IC50, big to small. Give me the labels in the order the question wants.
Result: R, S, T, P, Q

[P] Cn1c(Nc2cc(CNS(=O)(=O)C(C)(C)C)ccc2Cl)nc2cc(Cl)c(N3CCC(C(F)(F)F)CC3)cc21 [Example 99]
[Q] COC[C@@H]1CCCN1c1cc2[nH]c(Nc3cc(CNC(=O)C4(C)CCCCC4)ccc3Cl)nc2cc1Cl [Example 122]
[R] CN(C)CC1CCN(c2cc3[nH]c(Nc4cc(CNC(=O)C(C)(C)C)ccc4Cl)nc3cc2Cl)C1 (stereo not shown) [Example 3]
Ask: Give the ascending ranking of the items by reported IC50. Give me the labels in the order the question wants.
Result: P, Q, R

[I] Cn1c(Nc2cc(CNC(=O)C3(C(F)(F)F)CC3)ccc2Cl)nc2cc(F)c(N3CCC(C)(C)CC3)c(F)c21 [Example 85]
[II] Cn1c(Nc2cc(CNC(=O)C3(C(F)(F)F)CC3)c(F)cc2Cl)nc2cc(Cl)c(N3CCC(C(F)(F)F)CC3)cc21 [Example 114]
Ask: Of I and II , whose reported IC50 is numerically smaller? Your choice should be expressed through its label.
Result: II
(II: 4.8 nM, I: 20 nM)
